Target: Dihydroorotate dehydrogenase (quinone), mitochondrial (Plasmodium falciparum (isolate 3D7)) (UniProt Q08210)
Sequence (Q08210 whole entry, looked up): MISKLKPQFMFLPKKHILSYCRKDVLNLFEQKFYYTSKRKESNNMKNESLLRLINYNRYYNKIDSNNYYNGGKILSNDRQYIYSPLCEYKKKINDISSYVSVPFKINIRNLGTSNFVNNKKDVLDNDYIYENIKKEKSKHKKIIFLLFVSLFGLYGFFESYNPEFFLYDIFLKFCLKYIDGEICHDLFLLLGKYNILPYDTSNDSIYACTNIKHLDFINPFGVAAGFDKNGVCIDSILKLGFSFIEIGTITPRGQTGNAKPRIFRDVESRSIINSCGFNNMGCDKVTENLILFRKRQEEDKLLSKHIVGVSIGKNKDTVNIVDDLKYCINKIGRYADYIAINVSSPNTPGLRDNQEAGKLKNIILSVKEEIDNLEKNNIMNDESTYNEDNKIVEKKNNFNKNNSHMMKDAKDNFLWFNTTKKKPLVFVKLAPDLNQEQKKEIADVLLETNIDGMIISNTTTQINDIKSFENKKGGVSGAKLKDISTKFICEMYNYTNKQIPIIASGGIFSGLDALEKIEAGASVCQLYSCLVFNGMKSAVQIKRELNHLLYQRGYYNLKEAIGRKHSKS
Assay: PfDHODH enzyme inhibitors, primary screen, biochemical, C-terminal His tag, absorbance 600 nm (AID 1175);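 further: recombinant parasite enzyme with a five histidine tag at its C terminus; test concentration not given here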
Settings: DCIP absorbance 600 nm, higher = more signal, called active from +8 up or from −8 down
readout-name: composite z-score
Answers are plain numbers.

These solved cases illustrate the format of a correct answer.
compound: CC(=O)NCCCC[C@@H]1NC(=O)[C@H]2C[C@@H](C(=O)NCCCC[N+](C)(C)C)[C@@H](c3cccc(OCCO)c3)N2C1=O
composite z-score: -30.8
--
compound: COc1ccc([Si](C)(C)[C@H]2[C@H](CCO)O[C@@]3(C(=O)N(Cc4cccc(N5C(=O)COc6ccccc65)c4)c4ccccc43)[C@@H]2C)cc1
composite z-score: 0.858
--
compound: CCOC(=O)C[C@H]1[C@H](OC(=O)c2cc3ccccc3oc2=O)[C@@H](NC(=O)c2ccc(-c3ccccc3)cc2)c2cc(OCCCO)ccc2N1C(=O)c1ccc2ccccc2n1
composite z-score: -0.0286

# batch size: 8; output composite z-score per entry
1. CCOC(=O)C[C@H]1[C@H](OC(=O)c2ccc(C(=O)c3ccccc3)cc2)[C@@H](NC(=O)Cc2ccc(OC)cc2)c2cc(OCCCO)ccc2N1C(=O)c1ccccc1
2. CN1C(=O)C2C=CC(C(O)c3cccc4ccccc34)N(N3CCCCC3)C2C1=O (centres undefined)
3. O=C1OCCC/C=C\[C@H]2OC34C=CCN(CCN5CCOCC5)C(=O)[C@H]3N(CCCCCCO)C(=O)[C@@H]4C12 (some centres undefined)
4. COCCCNC(=O)[C@@]1(Cc2ccccc2N=[N+]=[N-])N=C(c2ccc(OCCCO)cc2)O[C@H]1c1ccccc1
5. O=C1OCC=C[C@H]2OC34C=CCN(Cn5nnc6ccccc65)C(=O)[C@H]3N(CCCO)C(=O)[C@@H]4[C@@H]12 (some centres undefined)
6. CCOC(=O)C[C@H]1[C@H](OC(=O)c2cc3ccccc3oc2=O)[C@@H](NC(=O)Cc2ccc(OC)cc2)c2cc(OCCCO)ccc2N1C(=O)c1ccc2ccccc2n1
7. COCCOC(=O)N1C(=O)[C@@]2(c3cc(C#CC4(O)CCCCCC4)ccc31)[C@H](c1ccc(O)cc1)N1[C@H](c3ccccc3)[C@H](c3ccccc3)OC(=O)[C@H]1[C@@H]2C(=O)NC[C@H](O)c1ccccc1
8. C[C@@H]1ON(c2ccc(C(=O)OC(C)(C)C)cc2)[C@H](c2ccc(O)cc2)[C@H]1C(=O)N1C(=O)OC[C@H]1Cc1ccccc1

A)
1: -0.517; 2: -0.0243; 3: -1.38; 4: 0.328; 5: -2.85; 6: 0.0564; 7: 0.658; 8: 0.771

# batch size: 3; output composite z-score per entry
1. Cc1ccc(S[C@]2(C(=O)NCC(F)(F)F)CC(=O)N(Cc3ccccc3C(F)(F)F)[C@@H]2c2ccc(CO)cc2I)cc1
2. N#Cc1ccc(NN2C(C(O)c3ccc(F)cc3)C=CC3C(=O)N(c4ccccc4)C(=O)C32)cc1 (centres undefined)
3. CCOC(=O)[C@H]1[C@@H]2C(=O)N3CCC[C@H]3[C@H](O[Si](C(C)C)(C(C)C)C(C)C)[C@H]2C=C2CCN(S(=O)(=O)c3ccc(C)cc3)C[C@H]21

A)
0.196
0.37
-0.627
